System: CP266
Test: qHTS profiling for inhibitors of Plasmodium falciparum proliferation (AID 504749); note: nearly all actives have a fitted effect of over 60% in size; note: potency is the fitted concentration of half-maximal effect
Conditions: P. falciparum in erythrocytes, SYBR Green DNA, 72 h; series mostly up to 28.7 µM
Inconclusive results are not listed. The source made the active and inactive calls. Calls come from the whole dose curve; as a rule, active = well fitted inhibition curve with a large enough effect; inconclusive = small, poorly fitted or top-dose-only effect; inactive = flat fitted curve, though single readings scatter. Peptide text beside a SMILES is read from it.
ENDPOINT_NAME: Potency

Answered cases to consult:
COC(=O)[C@H](Cc1ccccc1)NC(=O)[C@@H](N)CC(=O)O (H-Asp-Phe-OMe)    inactive
O=C(O)c1cccc(-c2noc(-c3ccccc3F)n2)c1    inactive
Nc1ccn([C@@H]2O[C@H](CO)[C@@H](O)C2O)c(=O)n1 (stereo partly specified)    inactive
COc1ccc2cc([C@H](C)C(=O)O)ccc2c1    inactive
Cc1ncc([N+](=O)[O-])n1CC(C)O (stereo unspecified)    inactive

Each molecule below has a reported value. Please supply its Potency.
1. Nc1cccc2c1CN(C1CCC(=O)NC1=O)C2=O (stereo unspecified)
2. Cc1cc(=O)oc2cc(O)ccc12
3. CCc1nc(N)nc(N)c1-c1ccc(Cl)cc1
4. CCCCCCCCCCCCCCCCCCCCCCO
5. COC(=O)C1=C(C)NC(C)=C(C(=O)OCCCN2CCC(c3ccccc3)(c3ccccc3)CC2)C1c1cccc([N+](=O)[O-])c1 (stereo unspecified)
6. O=C(NC(Cc1cc(=O)[nH]c2ccccc12)C(=O)O)c1ccc(Cl)cc1 (stereo unspecified)

Result:
["inactive", "inactive", "inactive", "inactive", "9.53 µM (active)", "inactive"]

----------
System: JEG-3
Assay: Primary qHTS to identify gynecologic anti-cancer compounds using libraries of approved drugs and bioactive compounds (AID 1345084); note: nearly all actives have a fitted effect of over 55% in size
Conditions: Gynecologic cancer cell panel viability, ATPlite luminescence, 48 h; series mostly up to 57.5 µM
Inconclusive results are not listed. Active and inactive are the calls of the source. Calls follow the shape of the dose curve; as a rule, active = well fitted cell-killing curve with a large enough effect; inconclusive = small, poorly fitted or top-dose-only effect, or effect the other way; inactive = flat fitted curve, though single readings scatter. Peptide text beside a SMILES is read from it.
Your response should consist of one outcome taken from active, inactive

Worked set:
CC1(C)NC(=O)N(c2ccc([N+](=O)[O-])c(C(F)(F)F)c2)C1=O    inactive
COC(=O)[C@H](Cc1ccccc1)NC(=O)[C@@H](N)CC(=O)O (H-Asp-Phe-OMe)    inactive
COc1cc(OC)c(C(=O)CCCN2CCCC2)c(OC)c1    inactive

Task: Name the outcome recorded for CN(c1nccc(=O)[nH]1)C1CCN(c2nc3ccccc3n2Cc2ccc(F)cc2)CC1 in the assay.
Result: inactive

Task: Name the outcome recorded for Cc1c(OCC(F)(F)F)ccnc1CS(=O)c1nc2ccccc2[nH]1 (centres undefined) in the assay.
Result: inactive

Task: Name the outcome recorded for COc1cc2c(N3CCN(C(=O)Nc4ccc(OC(C)C)cc4)CC3)ncnc2cc1OCCCN1CCCCC1 in the assay.
Result: inactive

Task: Name the outcome recorded for CN(C)c1ccc(O)c2c1C[C@H]1C[C@H]3[C@H](N(C)C)C(=O)C(C(N)=O)=C(O)[C@@]3(O)C(=O)C1=C2O in the assay.
Result: inactive

Task: Name the outcome recorded for CC(C)[C@H](N)C(=O)OCCOCn1cnc2c(=O)[nH]c(N)nc21 in the assay.
Result: inactive

Task: Name the outcome recorded for CCc1nc(N)nc(N)c1-c1ccc(Cl)cc1 in the assay.
Result: inactive

Task: Name the outcome recorded for Nc1cccc2c1CN(C1CCC(=O)NC1=O)C2=O (centres undefined) in the assay.
Result: inactive

Task: Name the outcome recorded for Cc1ccc(C)c(OCCCC(C)(C)C(=O)O)c1 in the assay.
Result: inactive

Task: Name the outcome recorded for COc1ccc(C2(C#N)CCC(C(=O)O)CC2)cc1OC1CCCC1 (centres undefined) in the assay.
Result: inactive

Task: Name the outcome recorded for CCOC(=O)c1c(C)n(C)c2ccc(O)cc12 in the assay.
Result: inactive

Task: Name the outcome recorded for S=c1nc[nH]c2nc[nH]c12 in the assay.
Result: active

Task: Name the outcome recorded for CC(=O)Nc1ccc(O)cc1 in the assay.
Result: inactive

Task: Name the outcome recorded for N=C(N=C(N)N)N1CCOCC1 in the assay.
Result: inactive

Task: Name the outcome recorded for Clc1ccc(C(Cn2ccnc2)OCc2ccc(Sc3ccccc3)cc2)c(Cl)c1 (centres undefined) in the assay.
Result: inactive

Task: Name the outcome recorded for Clc1ccc(C(Cn2ccnc2)OCc2ccsc2Cl)c(Cl)c1 (centres undefined) in the assay.
Result: inactive

Task: Name the outcome recorded for c1ccc2[nH]c(-c3cscn3)nc2c1 in the assay.
Result: inactive

Task: Name the outcome recorded for Oc1ccc(OCc2ccccc2)cc1 in the assay.
Result: inactive

Task: Name the outcome recorded for CN(C)c1ccc2nc3ccc(=[N+](C)C)cc-3sc2c1 in the assay.
Result: active

Task: Name the outcome recorded for O=C(NCCO[N+](=O)[O-])c1cccnc1 in the assay.
Result: inactive

Task: Name the outcome recorded for CC(C)c1ccc2oc3nc(N)c(C(=O)O)cc3c(=O)c2c1 in the assay.
Result: active

Task: Name the outcome recorded for CCCOc1ccc2nc(NC(=O)OC)[nH]c2c1 in the assay.
Result: active

----------
System: C2A
Experiment: qHTS profiling for inhibitors of Plasmodium falciparum proliferation (AID 504749); note: nearly all actives have a fitted effect of over 60% in size
Details: P. falciparum in erythrocytes, SYBR Green DNA, 72 h; series mostly up to 28.7 µM
Results filed as inconclusive are left out. The source made the active and inactive calls. Calls follow the shape of the dose curve; as a rule, active = well fitted inhibition curve with a large enough effect; inconclusive = small, poorly fitted or top-dose-only effect; inactive = flat fitted curve, though single readings scatter.
Your response should consist of one outcome taken from Y (active), N (inactive)

Cn1c(NCCN(CCO)CCCc2ccc([N+](=O)[O-])cc2)cc(=O)n(C)c1=O    N
COC(=O)C1=C(C)NC(C)=C(C(=O)OCCCN2CCC(c3ccccc3)(c3ccccc3)CC2)C1c1cccc([N+](=O)[O-])c1 (stereo unspecified)    Y
Cc1cc2cc3c(C)cc(=O)oc3c(C)c2o1    N
Nc1ccc(S(N)(=O)=O)cc1    N
O=C1c2ccccc2-c2n[nH]c3cccc1c23    N

Task: Name the outcome recorded for C[Se]CCC(N)C(=O)O (stereo unspecified) in the assay.
Result: N

----------
Assay: qHTS of pediatric cancer cell lines to identify multiple opportunities for drug repurposing: Primary screen for TC32 cells (AID 1347089); note: nearly all actives have a fitted effect of over 60% in size
Details: TC32 Ewing sarcoma viability, CellTiter-Glo luminescence, 48 h; series mostly up to 45.8 µM
Inconclusive results are not listed. Active and inactive are the calls of the source. Calls follow the shape of the dose curve; as a rule, active = well fitted cell-killing curve with a large enough effect; inconclusive = small, poorly fitted or top-dose-only effect; inactive = flat fitted curve, though single readings scatter.
Your response should consist of one outcome taken from Yes (active), No (inactive)

Worked set:
Cc1ccc(Nc2nccc(N(C)c3ccc4c(C)n(C)nc4c3)n2)cc1S(N)(=O)=O    No
CCN(CCO)CCCC(C)Nc1ccnc2cc(Cl)ccc12 (stereo unspecified)    No
CC(C)c1ccc2c(c1)c(SC(C)(C)C)c(CC(C)(C)C(=O)O)n2Cc1ccc(Cl)cc1    No

Task: Name the outcome recorded for Nc1ccc(S(N)(=O)=O)cc1 in the assay.
Result: No

Task: Name the outcome recorded for COc1cc(Nc2c(C#N)cnc3cc(OCCCN4CCN(C)CC4)c(OC)cc23)c(Cl)cc1Cl in the assay.
Result: Yes

Task: Name the outcome recorded for CCCS(=O)c1ccc2nc(NC(=O)OC)[nH]c2c1 (stereo unspecified) in the assay.
Result: No

Task: Name the outcome recorded for CNC[C@H](O)c1ccc(O)c(O)c1 in the assay.
Result: No

Task: Name the outcome recorded for NC(=O)Cc1cccc(C(=O)c2ccccc2)c1N in the assay.
Result: No

Task: Name the outcome recorded for CC(C)(S)[C@@H](N)C(=O)O in the assay.
Result: No

Task: Name the outcome recorded for O=C(c1ccccc1)c1ccc2n1CCC2C(=O)O (stereo unspecified) in the assay.
Result: No

----------
Assay: Quantitative High-Throughput drug screen in 47 multiple myeloma cell lines against the NCATS MIPE library collection: Karpas620_DSMZ cell viability assay (AID 1918959); note: nearly all actives have a fitted effect of over 30% in size
Details: Karpas620 myeloma viability, CellTiter-Glo ATP luminescence, 48 h; series mostly up to 45.8 µM
Results filed as inconclusive are left out. Active and inactive are the calls of the source. Calls come from the whole dose curve; as a rule, active = well fitted cell-killing curve with a large enough effect; inconclusive = small, poorly fitted or top-dose-only effect, or effect the other way; inactive = no such curve, though single readings can be large or run the other way.
Your response should consist of one outcome taken from active, inactive

Task: Name the outcome recorded for C[C@@H](c1ncncc1F)[C@](O)(Cn1cncn1)c1ccc(F)cc1F in the assay.
Result: inactive

Task: Name the outcome recorded for COc1cc(OC)c(C(=O)CCCN2CCCC2)c(OC)c1 in the assay.
Result: inactive

Task: Name the outcome recorded for CC1(C)NC(=O)N(c2ccc([N+](=O)[O-])c(C(F)(F)F)c2)C1=O in the assay.
Result: inactive

Task: Name the outcome recorded for CCOC(=O)C1=C(O)C(=O)N(Cc2ccccc2)C1 in the assay.
Result: inactive

----------
Assay: MultiTox-Fluor Cytotoxicity Assay - LYMP1-002 - Live Cells (AID 955);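 note: cells exposed to compound for 16 hours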
Details: LYMP1-002 lymphoblastoid live-cell protease fluorescence viability; series mostly up to 46.1 µM
Results filed as inconclusive are left out. Activity calls are given as the source filed them. The call rests on the fitted dose curve; in most records, active means well fitted cell-killing curve with a large enough effect; inconclusive means small, poorly fitted or top-dose-only effect, or effect the other way; inactive means flat fitted curve, though single readings scatter.
ENDPOINT_NAME: outcome

Nc1ccc(S(N)(=O)=O)cc1    inactive
CC(=O)Nc1ccc(O)cc1    inactive
Cc1cc(O)c2c(c1)C(=O)c1cc(O)cc(O)c1C2=O    inactive
